The values you see were collected from patent US10538583.

- tested_system: human ApoC3 (human)
- Sequence (chain, as listed by the source): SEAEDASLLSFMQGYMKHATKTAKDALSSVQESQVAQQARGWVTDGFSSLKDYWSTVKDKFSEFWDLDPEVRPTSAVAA
- assay_notes: SPR pH 5.5
Listed below: Kd values for each entry.
Provide the reading as a plain figure in nM.

binder: mAb16 (antibody, V domains shown) VH: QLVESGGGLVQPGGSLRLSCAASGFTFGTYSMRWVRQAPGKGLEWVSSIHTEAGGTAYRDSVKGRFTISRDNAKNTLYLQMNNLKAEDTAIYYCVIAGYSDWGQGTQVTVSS VL: DIVMTQSPLSLPVTPGESASISCKTSQGLVHSGGKTYFYWFLQKPGQSPQQLIYQVSNRASGVPDRFTGSGSGTDFTLKISRVEAEDAGVYYCAHGTYYPHTFGSGTRLEIK
assay_metric: Kd
measurement_units: nM
data_value: 7.44

binder: 5E5WT (5E5) IgG1 (antibody, V domains shown) VH: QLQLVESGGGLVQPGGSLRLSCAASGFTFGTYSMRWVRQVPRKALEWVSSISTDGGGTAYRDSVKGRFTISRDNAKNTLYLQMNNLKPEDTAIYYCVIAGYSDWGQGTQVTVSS VL: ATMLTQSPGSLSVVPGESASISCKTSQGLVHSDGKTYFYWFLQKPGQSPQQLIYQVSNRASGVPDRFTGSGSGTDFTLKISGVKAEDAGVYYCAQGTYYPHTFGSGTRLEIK
assay_metric: Kd
measurement_units: nM
data_value: 0.0499

Consider the record given below.
input: Consider the binder mAb19 (antibody, V domains shown) VH: QLVESGGGLVQPGGSLRLSCAASGFTFSTYSMRWVRQAPGKGLEWVSSIHTDAGGTAYRDSVKGRFTISRDNAKNTLYLQMNNLRPEDTAVYYCVIAGYSDWGQGTLVTVSS VL: DIVMTQSPGSLSVTPGEPASISCKTSQGLVHSGGKTYFYWFLQKPGQSPQQLIYQVSNRASGVPDRFTGSGSGTDFTLKISGVEAEDAGVYYCAQGTYYPHTFGQGTRLEIK . State its measured Kd.
output: 0.417
